quantity.measured: pIC50
Reminder that pIC50 means the negative base-10 logarithm of the concentration expressed in mol/L.

Measured pIC50 (Coagulation factor X (Homo sapiens, UniProt P00742)), entry Cn1c(=O)c(Cc2ccc(C(=N)N)cc2)nc2cc(C(C)(C)C(=O)N3CCCCC3)ccc21 : 6.40

For the compound CCOC(=O)C1(c2ccc3c(c2)nc(Cc2ccc(C(=N)N)cc2)c(=O)n3C)CC1 , the measured pIC50 on Coagulation factor X (Homo sapiens, UniProt P00742) was 4.34

For the compound CC1CCCN(C(=O)C(C)(C)c2ccc3c(c2)nc(Cc2ccc(C(=N)N)cc2)c(=O)n3C)C1 (centres undefined) , the measured pIC50 on Coagulation factor X (Homo sapiens, UniProt P00742) was 6.23

Entry Cn1c(=O)c(Cc2ccc(C(=N)N)cc2)nc2cc(C(C)(C)C(=O)N3CCNCC3)ccc21 ; assay system Coagulation factor X (Homo sapiens, UniProt P00742); pIC50 recorded at 4.51

# value of pIC50, Coagulation factor X (Homo sapiens, UniProt P00742), item Cn1c(=O)c(Cc2ccc(C(=N)N)cc2)nc2cc(C(C)(C)C(=O)N3CCCC3)ccc21 = 6.30

The reported Coagulation factor X (Homo sapiens, UniProt P00742) pIC50 of CCOC(=O)C(C)(C)c1ccc2c(c1)nc(Cc1ccc(C(=N)N)cc1)c(=O)n2C is 4.97

Value (pIC50, Coagulation factor X (Homo sapiens, UniProt P00742)) for record CCOC(=O)C(C)(C)c1ccc2c(C)cc(Oc3ccc(C(=N)N)cc3)nc2c1 = 4.92

Lab note: compound Cn1c(=O)c(Cc2ccc(C(=N)N)cc2)nc2cc(C3(N(C(=O)CC(=O)O)C4CCCC4)CC3)ccc21 tested on Coagulation factor X (Homo sapiens, UniProt P00742); recorded pIC50 was 5.52
